Quick reference for Detoxification Percent among some molecules
Target: UniProtKB P11712
Sequence (P11712 whole entry): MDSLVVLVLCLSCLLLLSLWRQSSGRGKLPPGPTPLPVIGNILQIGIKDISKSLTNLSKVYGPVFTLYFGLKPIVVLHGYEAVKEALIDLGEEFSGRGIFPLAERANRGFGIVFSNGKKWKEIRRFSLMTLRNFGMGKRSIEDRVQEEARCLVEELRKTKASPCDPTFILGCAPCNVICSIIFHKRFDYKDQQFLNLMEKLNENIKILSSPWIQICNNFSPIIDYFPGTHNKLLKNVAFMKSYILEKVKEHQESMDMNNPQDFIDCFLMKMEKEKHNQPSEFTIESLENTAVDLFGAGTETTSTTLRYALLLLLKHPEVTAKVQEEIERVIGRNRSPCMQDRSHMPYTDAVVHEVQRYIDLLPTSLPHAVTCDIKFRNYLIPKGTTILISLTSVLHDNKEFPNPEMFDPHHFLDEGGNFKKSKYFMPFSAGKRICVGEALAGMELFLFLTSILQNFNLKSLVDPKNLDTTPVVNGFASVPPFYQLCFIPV
Test: Relative CYP contribution to hepatic bioactivation and detoxification, CYP2C9
Assay type: in vitro ADME
Conditions: CYP2C9 contribution to total CLdetox of the NSAID
Return type: number; implicit unit %.

Cc1ccc(Cl)c(Nc2ccccc2C(=O)O)c1Cl    36.5
Cc1ccc(Nc2c(F)cccc2Cl)c(CC(=O)O)c1    23.4
Cc1c(Cl)cccc1Nc1ccccc1C(=O)O    35.5
O=C(O)c1ccccc1Nc1cccc(C(F)(F)F)c1    27.6
Cc1cccc(Nc2ccccc2C(=O)O)c1C    36.9
O=C(O)COC(=O)Cc1ccccc1Nc1c(Cl)cccc1Cl    30.7

Look up Detoxification Percent with UniProtKB P11712 for this molecule: `O=C(O)Cc1ccccc1Nc1c(Cl)cccc1Cl`
12.0

Origin of the recorded values: paper PMC8710044
